System: SK-MEL-5 melanoma
Assay: NCI tumour cell line growth inhibition, 48 h
parameter_measured: TGI

## Task Answer with the recorded TGI for the molecule listed here: COc1ccc(N2C(=O)C3c4[nH]c5ccc(F)cc5c4C4CCC(c5ccccc5)CC4C3C2=O)cc1 (stereo not drawn)
## Result 54.2 µM

## Task Tell me measured TGI for CCc1cc(CCC(=O)Nc2c(C)cccc2C)[nH]n1 please.
## Result > 100 µM

## Task Provide one value: measured TGI of CC1=NN(C(=O)c2ccc([N+](=O)[O-])cc2)C(=O)C1N=Nc1ccccc1C(=O)O (stereo not drawn)
## Result > 100 µM

## Task Please look at this molecule and report its TGI: O=C1C=CC(=O)c2cc(Sc3ccccc3)c(=O)ccc21
## Result 31.5 µM

## Task Please report the measured TGI for COc1cc2c(cc1OC)C1(COc3cc(O)c(O)c(O)c3C1=O)C2 (stereo not drawn)
## Result > 50 µM

## Task Give recorded TGI. COc1ccc(C2C3COc4ccccc4C3=NN2c2ccccc2)cc1 (stereo not drawn)
## Result > 100 µM

## Task Please give the documented TGI of CCOC(=O)/C(C#N)=C/c1ccnc2ccccc12
## Result > 100 µM

## Task Specify measured TGI for O=C(OCc1ncc(-c2ccc(C(F)(F)F)cc2)c(NC2CCCCCC2)n1)c1c(F)c(F)c(F)c(F)c1F .
## Result 30.3 µM

## Task Output TGI of Cc1c(C(=O)/C=C/c2ccccc2O)c(=O)n(-c2ccccc2)n1C
## Result 28.6 µM

## Task # return recorded TGI for input COc1ccc(OC)c(NS(=O)(=O)c2ccc3nc(C)n(NS(=O)(=O)c4cc(OC)ccc4OC)c(=O)c3c2)c1
## Result > 100 µM

## Task Query TGI for Nc1nn2c(nc(N)c3c(N)[nH]nc32)c1N=Nc1ccc(Br)cc1
## Result > 100 µM

## Task Identify the reported TGI for the following entry. C=CCO[C@]1(CC=C)C(=O)C(=O)OC1C1COC(C)(C)O1 (stereo partly drawn)
## Result 97.6 µM

## Task Assign TGI to the following record: COc1nc(N)nc2c1ncn2C1OC(CO)C(O)C1O (stereo not drawn)
## Result > 5000 µM

###

Please respond with reported TGI for every item in the list.
Tested on: SW-620 colon
Experiment: NCI tumour cell line growth inhibition, 48 h

## Task Give the value of TGI reported for the following: CCCCCCCCCCCCOCCCOP(=O)([O-])OCC[N+](C)(C)C
## Result > 100 µM

## Task Tell me measured TGI for CN(c1ccccc1Cl)S(=O)(=O)c1ccc([N+](=O)[O-])cc1 please.
## Result > 100 µM

## Task State its TGI for this compound: O=C1C=CC(=O)c2cc(Sc3ccccc3)c(=O)ccc21
## Result 11.7 µM

###

System: HOP-62 NSCLC
Assay: NCI tumour cell line growth inhibition, 48 h
parameter_measured: TGI (µM)
# unit: µM | format: bare number

## Task For the compound CN(Cc1cc(Cl)cc(Cl)c1)CC(C(=O)c1ccccc1)c1ccccc1 (stereo not given) , give its measured TGI value.
## Result 71.3

## Task Return TGI for the following compound: COC(=O)C(Cc1nc2ccccc2[nH]c1=O)C(=O)C(=O)Nc1ccc([N+](=O)[O-])cc1[N+](=O)[O-] (stereo not given)
## Result 45.4
